Target: Muscarinic acetylcholine receptor M2 (Homo sapiens) (UniProt P08172)
Sequence (P08172 whole entry): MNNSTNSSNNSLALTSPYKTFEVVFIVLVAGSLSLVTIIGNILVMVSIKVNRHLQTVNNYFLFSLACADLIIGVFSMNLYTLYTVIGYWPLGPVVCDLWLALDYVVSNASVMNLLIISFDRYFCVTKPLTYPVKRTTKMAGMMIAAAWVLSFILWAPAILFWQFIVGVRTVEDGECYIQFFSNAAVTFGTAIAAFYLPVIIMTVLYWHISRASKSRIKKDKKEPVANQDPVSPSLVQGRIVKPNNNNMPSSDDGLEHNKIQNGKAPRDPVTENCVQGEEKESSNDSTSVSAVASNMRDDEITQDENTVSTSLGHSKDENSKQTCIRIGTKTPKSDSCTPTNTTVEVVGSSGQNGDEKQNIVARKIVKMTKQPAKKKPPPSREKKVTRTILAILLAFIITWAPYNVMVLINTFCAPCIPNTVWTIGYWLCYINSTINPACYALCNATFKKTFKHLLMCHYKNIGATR
Test: In vitro potency at muscarinic M2 receptors of guinea pig heart relative to muscarine.
Format: functional
Conditions: Cavia porcellus; target entry is the homologue from another species
Parameter measured: Intrinsic activity
Just the number, please, no unit attached.

Examples from the recorded data:
Chemical string: C[C@@H]1O[C@@H](C[N+](C)(C)C)C[C@H]1F
Parameter measured: Intrinsic activity
Test result: 0.97

Chemical string: C[C@@H]1O[C@H](C[N+](C)(C)C)C[C@@H]1F
Parameter measured: Intrinsic activity
Test result: 0.76

Chemical string: C[C@@H]1O[C@H](C[N+](C)(C)C)C[C@H]1F
Parameter measured: Intrinsic activity
Test result: 0.98

--- query ---
Exercise: Record request: Intrinsic activity value, item `C[C@@H]1O[C@@H](C[N+](C)(C)C)C[C@@H]1F`
Solution: 0.72

* * *

Items are presented alongside their recorded Intrinsic activity.
Biological target: Muscarinic acetylcholine receptor M3 (Cavia porcellus)
Assay: In vitro potency at muscarinic M3 receptors of guinea pig bladder relative to muscarine..
Assay type: functional
Just the number, please, no unit attached.

Examples from the recorded data:
Chemical string: C[C@@H]1O[C@@H](C[N+](C)(C)C)C[C@H]1F
Experimental target: Muscarinic acetylcholine receptor M3 (Cavia porcellus)
Intrinsic activity: 0.74

Chemical string: C[C@@H]1O[C@@H](C[N+](C)(C)C)C[C@@H]1F
Experimental target: Muscarinic acetylcholine receptor M3 (Cavia porcellus)
Intrinsic activity: 0.52

Chemical string: C[C@@H]1O[C@H](C[N+](C)(C)C)C[C@@H]1F
Experimental target: Muscarinic acetylcholine receptor M3 (Cavia porcellus)
Intrinsic activity: 0.76

--- query ---
Exercise: Record request: Intrinsic activity value, item `C[C@@H]1O[C@H](C[N+](C)(C)C)C[C@H]1F`
Solution: 0.88
